# Species on record: Homo sapiens
# ASSAY TEXT: To identify inhibition of the IFN signalling (Jak-Stat) pathway via expression of an eGFP reporter gene under the control of an IFN-stimulated response element (ISRE) containing MxA promoter.
# Type: functional
# Parameters: scale not given: direction of the effect not stated beside the values
# MEASUREMENT SETUP: 30 µM
Each entry below lists one item and its recorded Percent Effect value.
REPORTED METRIC: Percent Effect (%)

CCn1c(CN2CCN(CC(N)=O)CC2)nc2c(F)cccc21 | -11.4
O=C(CCNC(=O)c1ccccc1N1CCOCC1)NC1CCCC1 | -7.41
O=C(Cn1cc(I)cn1)N1CCCC1 | 20.5
CN(C)C(=O)CNC(=O)CCn1ncc2c(Cl)cccc21 | 16.1
Cc1nn(C)c(C)c1-c1cncc(C2CCN(S(C)(=O)=O)CC2)n1 | 25.6
NCC1CN(c2nc(-c3ccccc3)nc3c2CCNCC3)CCO1 (configuration not stated) | 4.88
Cc1nc2c(c(C)c1CC(=O)Nc1ccc(Cl)cc1)c(=O)[nH]n2C | 11.7
COc1ccc(S(=O)(=O)N2CCCC3(CCCN3S(C)(=O)=O)C2)cc1 (configuration not stated) | 7.81
COc1c(CNC2CCN(C(=O)C3CC3)CC2)c(C(C)C)nn1C | 15.4
O=C(C1CC(=O)N(C2CCCC2)C1)N1CCN(CCn2cccc2)CC1 (configuration not stated) | 23
Cn1cc(-c2nc(CN3CCN(CCO)CC3)cs2)cn1 | 17
Cc1nn(C)c(N(C)C)c1CNCc1cccnc1 | -10.3

----------
Each entry below lists one item and its recorded Percent Effect value.
# Species: Homo sapiens
# ASSAY TEXT: To identify inhibition of the IFN signalling (Jak-Stat) pathway via expression of an eGFP reporter gene under the control of an IFN-stimulated response element (ISRE) containing MxA promoter.
# Assay type: functional
# Parameters: scale not given: direction of the effect not stated beside the values
# MEASUREMENT SETUP: 30 µM
REPORTED METRIC: Percent Effect (%)

COc1ccc(C(=O)N2CCCC2c2ccco2)cc1OC (stereo not drawn) | 9.23
CCc1ncnc2c1CCN(C(=O)N1CCCC1)CC2 | 1.54
Cc1ccc(C(=O)N2CCN(CC(O)c3ccc(F)cc3)CC2)s1 (stereo not drawn) | 13.7
Cc1ccc(CNC(=O)Cn2ncc3c2c(C)nn3C)cc1 | 6.77
Cc1ccc(NC2CCN(C(=O)CCNS(C)(=O)=O)CC2)nn1 | 2.45
COC(=O)N1CCCC(C(=O)NCc2cc3cccc(OC)c3o2)C1 (stereo not drawn) | -18.3
CC(NC(=O)NCc1ccc(Cl)cc1)c1ccccn1 (stereo not drawn) | 12.2
CC(C)(C)c1cnc(CN2CCC(c3ccnn3CCO)CC2)o1 | 20.2
COc1cccc(OCC2CCCN(C(=O)c3cnc(C)nc3O)C2)c1 (stereo not drawn) | -19
COC1CCN(C(=O)c2c(Cl)c3ccccc3n2C)CC1 | -7.49
Cc1occc1C(=O)N1CCC2(CCCN(CC3CCC3)C2=O)C1 (stereo not drawn) | 13.6
O=S(=O)(C1CC1)N1CCO[C@H]2[C@H](OCCN3CCCC3)CC[C@@H]21 | 17.6
Cn1cc(C2CCCN2CCCc2nc(-c3cccs3)no2)cn1 (stereo not drawn) | 18.4
CC(C)N(C)Cc1cn2c(n1)CN(Cc1ccsc1)CC2 | 18.4
O=C(CCc1ccc(Br)cc1F)NS(=O)(=O)c1ccc2c(c1)OCCO2 | 18.6
Cn1cc(N2CCC3(CCN(Cc4nccs4)C3)C2=O)cn1 (stereo not drawn) | -1.48
c1ccc2cc(OCCN3CCOC(Cn4cncn4)C3)ccc2c1 (stereo not drawn) | 5.72
CNC(=O)C1Cn2ccnc2C2(CCN(Cc3cccc(C)n3)CC2)O1 (stereo not drawn) | 0.488
O=C(CCN1CCCC1C1CCCCC1)N1CCc2sccc2C1 (stereo not drawn) | -25.7
O=C(NCc1csc(Br)c1)c1ccc(=O)[nH]n1 | 13.1
COCCO[C@@H]1CCN(C(=O)c2ccc(C)o2)[C@@H]1Cc1cnn(C)c1 | -13
CN(Cc1ccco1)[C@@H]1CN(Cc2ccco2)[C@@H]2CCCO[C@H]12 | 2.84
FC(F)(F)COCCN1CCN(c2ccc3nncn3n2)CC1 | -15.5
O=C(CN1CCCCCCC1=O)NCc1ccccn1 | 0.819
CC(=O)c1cn(CC(=O)NC(C(=O)O)C(C)C)c2ccccc12 (stereo not drawn) | -13.9
CN(C)C(=O)N1CCOCC2(CCN(c3ncccn3)C2)C1 (stereo not drawn) | -36.2
CC(O)CN1CCN(C(=O)c2cnn(-c3ccc(Cl)cc3)c2)CC1 (stereo not drawn) | 7.52
c1ccc(OCC2CC3(CCN(c4ncccn4)CC3)CO2)nc1 (stereo not drawn) | 14
CCc1c(C)nc2n(c1=O)CC(C(=O)Nc1nc3c(s1)CCCC3)CS2 (stereo not drawn) | 18.6
O=C(NCC(O)c1ccc(F)c(F)c1)c1cccnc1OCC(F)(F)F (stereo not drawn) | 5.47
Cc1cncc(C(=O)N2CCC(Cn3cc(-c4ccsc4)nn3)CC2)c1 | 7.16
Cc1nc(C)c2c(n1)CCN(C(=O)CC1CC1)CC2 | 10.2
CC1CCN(C(=O)c2ccn(COc3ccc(F)cc3)n2)CC1 | -6.17
COCCCN1CCC(NC(=O)C(C)C)CC1 | 24.5
CC(C)n1cc(CN2CCCN(C(=O)c3nccnc3N)CC2)cn1 | 21.2
O=C(c1csc(-c2cccs2)n1)N1CCCC1Cn1cccn1 (stereo not drawn) | -2.06
O=C(Nc1cc(C(F)(F)F)c[nH]c1=O)N1CCCSCC1 | 20.5
Cn1cc(C[C@H]2[C@H](O)CCN2CC2CC2)cn1 | 1.21
CCc1ncc2c(n1)CN(C(=O)COC)C2 | 8.48
Cn1cccc1CNC(=O)CCCc1nnc2ccccn12 | -1.85
COc1ccc(C(=O)NS(=O)(=O)c2ccc(C#N)cc2C(F)(F)F)cc1 | 11.2
Cc1cc(CN2CCN(C(=O)C(C)C)[C@@H]3CS(=O)(=O)C[C@@H]32)ccc1F | -3.72
CN(CCc1ccccc1)Cc1cc(C(=O)N2CCCC2(C)C)no1 | 33.7
c1ccc(Oc2cc(CNCC3CNc4ccnn4C3)ccn2)cc1 (stereo not drawn) | 11.8
CC(C)c1nnc2n1CCN(C(=O)c1ccc(-n3cnnc3)cc1)C2 | 0.957
COc1cccc(C2CCCN2C(=O)c2cc3c([nH]c2=O)CCC3)c1 (stereo not drawn) | 5.64
CN(C)CCn1c(=O)oc2ccc(NC(=O)CC(C)(C)C)cc21 | 5.54
O=C(Cn1cccn1)NCC1(c2ccccc2)CC1 | 23.2

----------
Each entry below lists one item and its recorded Percent Effect value.
# TEST TARGET: Sialic acid-binding Ig-like lectin 9 (Homo sapiens) (UniProt Q9Y336)
# Sequence (Q9Y336 whole entry): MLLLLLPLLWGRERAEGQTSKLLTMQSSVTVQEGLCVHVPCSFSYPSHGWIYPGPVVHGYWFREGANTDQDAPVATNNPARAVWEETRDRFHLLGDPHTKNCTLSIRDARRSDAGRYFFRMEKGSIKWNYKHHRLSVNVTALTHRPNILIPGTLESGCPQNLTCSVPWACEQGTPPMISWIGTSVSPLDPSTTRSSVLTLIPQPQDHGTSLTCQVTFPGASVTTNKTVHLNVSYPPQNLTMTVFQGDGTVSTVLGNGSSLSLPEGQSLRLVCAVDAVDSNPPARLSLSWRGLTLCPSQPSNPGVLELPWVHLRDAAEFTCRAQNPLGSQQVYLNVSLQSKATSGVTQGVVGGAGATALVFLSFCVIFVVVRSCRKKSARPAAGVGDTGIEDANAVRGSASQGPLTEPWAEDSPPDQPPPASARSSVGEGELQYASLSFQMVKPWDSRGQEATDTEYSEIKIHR
# ASSAY TEXT: Hs-Siglec9 ALPHAscreen SOP 20170721
# Parameters: scale not given: direction of the effect not stated beside the values
# MEASUREMENT SETUP: 10 µM
REPORTED METRIC: Percent Effect (%)

Cc1ccc(CN2CCOC3(COCCN(CCN(C)C)C3)C2)o1 (stereo not drawn) | 0.443
Cc1cnn(CC2CCCN2C(=O)c2nccc3ccccc23)c1 (stereo not drawn) | 3.78
CCc1n[nH]c(C2CN(C(=O)Cn3ccccc3=O)CCO2)n1 (stereo not drawn) | -3.88
Cc1ccc(C(CNCC2CC2)N2CCOCC2)s1 (stereo not drawn) | 3.49
Cc1ncc(-c2nc3cc(S(=O)(=O)N4CCCC4)ccc3n2C)cn1 | -7.83
c1ccc2cc(OCCN3CCOC(Cn4cncn4)C3)ccc2c1 (stereo not drawn) | 14
Cc1cncc(C(=O)N2CCCC(C(=O)CCc3ccccc3)C2)c1 (stereo not drawn) | 1.76
c1cnn(CC2CCCCN2c2ncnc3sccc23)c1 (stereo not drawn) | 5.7
Cn1cccc1C(=O)N1CCc2ncnc(N3CCCC3)c2CC1 | 2.39
CC(C)OCC(=O)N1CCCN(Cc2ccc(C#N)cc2)CC1 | 11.3
CN(C)C(=O)CO[C@@H]1CC[C@H]2[C@H]1OCCN2C(=O)C1CCOCC1 | -1.21
Cc1ccc(C(=O)N2CCO[C@H]3[C@@H](OCc4ccccn4)CC[C@@H]32)o1 | 3.45
Cc1cc(C)n(CC2CN(CCOc3cccc(F)c3)CCO2)n1 (stereo not drawn) | 4.47
O=C(CCC1CCCC1)NCCn1nc(C2CCNC2)c2cccnc21 (stereo not drawn) | 2.58
CN(C)C(=O)CS(=O)(=O)Cc1cc(Cl)c2c(c1)OCO2 | 2.86
NC(=O)C1CN(C(=O)Nc2cc(Cl)cc(Cl)c2)CCO1 (stereo not drawn) | 4.99
CC(=O)N1CCC[C@H]1C(=O)NCCOc1cccc(Cl)c1 | -3.36
CCS(=O)(=O)N1CCC[C@]2(C(=O)N(C)C)CN(c3ccccn3)C[C@@H]2C1 | 0.0913
Cc1nc(CN(C)C2CCN(CC3CCCCC3)C2)no1 (stereo not drawn) | 1.46
CCCS(=O)(=O)Nc1ccc2c(c1)OCC(C)(C)C(=O)N2C | 1.41
CCn1cc(CN2CCCN(C(=O)CCCn3cncn3)CC2)cn1 | 6.78
CNc1cc(C)nc(C2CN(Cc3cc[nH]n3)CCO2)c1 (stereo not drawn) | -2.27
CN(CCOc1cccc(CNC(=O)C2CC2)c1)C1CCOCC1 | -1.13
O=c1c2sccc2nc2n1CCN(Cc1cccs1)CC2 | 1.3
CCOc1ncccc1NC(=O)c1sccc1C | -14.7
O=C(NCc1cccnc1)C1=NN(c2ccccc2)C(=O)CN1 | 14.9
Cc1cnn(CCNCc2ccccc2OCc2cccnc2)c1 | 6.26
CC(C)=CCN1CCOC(Cn2nc(C)cc2C)C1 (stereo not drawn) | -4.58
c1ncn(CC2CCCCN2Cc2csc(C3CCCC3)n2)n1 (stereo not drawn) | 1.89
O=C(NC1CCCC1)NC1CCC(C(=O)N2CCSCC2)CC1 (stereo not drawn) | 0.598
CC1CCCN(Cc2c(C3CCOCC3)[nH]c3ncccc23)C1 (stereo not drawn) | -6.47
OCCN1CCN(Cc2coc(-c3ccc(Cl)cc3)n2)CC1 | 4.43
Cc1ccc(C(=O)N2CCn3cc(CN(C)Cc4ccco4)nc3C2)o1 | 0.0829
NS(=O)(=O)Cc1ccc(CNC(=O)NCC2CCOC2)cc1 (stereo not drawn) | -1.36
Cc1cc2nc(SCC(=O)N3CCCC3)n(-c3ccccc3)c(=O)c2[nH]1 | -3.44
O=C(CCc1cscn1)N1CCCC1c1noc(C2CC2)n1 (stereo not drawn) | 6.15
CCOc1ncccc1NC(=O)c1cc2c(s1)CCC2 | 7.26
CC(O)CN1CCN(C(=O)c2cnn(-c3ccc(Cl)cc3)c2)CC1 (stereo not drawn) | 23.3
CN(Cc1ncc(C(C)(C)C)o1)C1CCCN(c2cccnn2)C1 (stereo not drawn) | -5.13
CN(C)C(=O)N1CCc2c(nnn2C)C1COCc1ccccc1 (stereo not drawn) | -0.726
COC1CCN(C(=O)c2c(Cl)c3ccccc3n2C)CC1 | 8.11
CC(O)CNCc1ccc(OCc2ccc3c(c2)OCCO3)cc1 (stereo not drawn) | -9.17
CCCNC(=O)CN1CCC(C(=O)Nc2cnn(CC)c2)CC1 | -8.7
COc1c(C2CCCN2C(=O)c2csc(C(C)C)n2)c(C)nn1C (stereo not drawn) | 11.7
CSC(C)C(=O)N1CCCN(Cc2cscn2)CC1 (stereo not drawn) | -6.37
Cn1cc(C2CCCN2CCCc2nc(-c3cccs3)no2)cn1 (stereo not drawn) | -1.6
CC(C)Cc1cc(NC(=O)c2ccc(=O)[nH]n2)n(C)n1 | 12.1
COCc1cccc(CNC(=O)CN2CCCC2c2noc(C)n2)c1 (stereo not drawn) | 3.2
